Assay: Clinical plasma pharmacokinetics of NTLA-2001 components (LC-MS/MS for Lipid A and DMG-PEG2k, qRT-PCR for guide RNA and mRNA)
Format: in vivo, human
Conditions: human; plasma, single IV infusion of NTLA-2001 at 0.1 to 1.0 mg/kg, range across doses; preliminary; read-out: mean (% CV) terminal t1/2
measure: half-life

Short answer for CCCCC/C=C\C/C=C\CCCCCCCC(=O)OCC(COC(=O)CCC(OCCCCCCCC)OCCCCCCCC)COC(=O)OCCCN(CC)CC (stereo not shown) : half-life was 19.7 to 24.8 h
